Where do these numbers come from? They come from patent US7160888B2.

Hi there, I'd appreciate the recorded Emax at 1 µM for every entry that follows.
# target: D2 receptor (Homo sapiens, UniProt P14416)
# Sequence (P14416 whole entry): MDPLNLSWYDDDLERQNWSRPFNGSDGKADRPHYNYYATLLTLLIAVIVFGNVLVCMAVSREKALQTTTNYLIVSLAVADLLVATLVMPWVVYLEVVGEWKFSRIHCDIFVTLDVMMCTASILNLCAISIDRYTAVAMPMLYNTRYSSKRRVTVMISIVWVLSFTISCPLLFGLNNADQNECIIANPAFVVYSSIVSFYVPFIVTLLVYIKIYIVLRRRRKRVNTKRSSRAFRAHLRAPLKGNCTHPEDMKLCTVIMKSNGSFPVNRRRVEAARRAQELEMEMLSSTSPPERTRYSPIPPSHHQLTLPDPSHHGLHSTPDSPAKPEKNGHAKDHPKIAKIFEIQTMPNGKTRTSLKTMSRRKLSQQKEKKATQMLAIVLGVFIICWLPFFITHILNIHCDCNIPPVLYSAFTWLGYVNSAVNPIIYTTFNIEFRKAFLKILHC
# run-description: [3H]Thymidine uptake assay for D2 intrinsic activity
# Assay type: cell-based
# measurement-setup: Table 2; test compound 1 μM; 1 μM Quinpirole = 100% intrinsic activity
One number for each entry, in %.

Here's what some known entries look like.
# compound-string, uom, Emax at 1 µM
measured = [
    ("CC1(C)CCc2cccc(N3CCN(CCCCOc4ccc5ccc(=O)[nH]c5n4)CC3)c2O1", "%", 50),
    ("O=C1CCc2ccc(OCCCCN3CCN(c4cccc5c4OCCCO5)CC3)nc2N1", "%", 15),
    ("O=C1CCc2cnc(OCCCCN3CCN(c4cccc5c4OC(F)(F)O5)CC3)cc2N1", "%", 21),
]

Now turn to the next compound.
Exam item: Field request: Emax at 1 µM | item: `O=C1NCc2ccc(OCCCCN3CCN(c4cccc5c4OCCCO5)CC3)nc2N1`
Marked response: 26
